Origin of the recorded values: ChEMBL document CHEMBL1145249

target.or.test.system: Melanocortin receptor 4 (Homo sapiens)
Sequence (P32245 whole entry): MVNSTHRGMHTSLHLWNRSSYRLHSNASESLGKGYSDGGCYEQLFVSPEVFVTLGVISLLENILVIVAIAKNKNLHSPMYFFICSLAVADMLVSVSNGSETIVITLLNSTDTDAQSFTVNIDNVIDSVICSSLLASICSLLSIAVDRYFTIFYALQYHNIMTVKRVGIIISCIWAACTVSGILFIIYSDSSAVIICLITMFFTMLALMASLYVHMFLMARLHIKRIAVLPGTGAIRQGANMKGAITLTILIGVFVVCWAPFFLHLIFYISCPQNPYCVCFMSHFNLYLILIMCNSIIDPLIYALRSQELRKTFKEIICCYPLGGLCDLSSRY
test.method.notes: Binding affinity for melanocortin-4 receptor transfected in HEK 293 cells using [125I]NDP-MSH as radioligand
property.measured: Ki

Sample answers from the record:
O=C([C@@H](Cc1ccc(Cl)cc1Cl)NCc1ccccc1)N1CCN(c2ccccc2CNCCc2cccs2)CC1	31 nM
CC(C)(C)NC(=O)N[C@H](Cc1ccc(Cl)cc1Cl)C(=O)N1CCN(c2ccccc2CNCCc2cccs2)CC1	2.4 nM
O=C(NCCO)N[C@H](Cc1ccc(Cl)cc1Cl)C(=O)N1CCN(c2ccccc2CNCCc2cccs2)CC1	2.9 nM
CC(C)OC(=O)N[C@H](Cc1ccc(Cl)cc1Cl)C(=O)N1CCN(c2ccccc2CNCCc2cccs2)CC1	4.5 nM
CC(C)NC(=O)N[C@H](Cc1ccc(Cl)cc1Cl)C(=O)N1CCN(c2ccccc2CNCCc2cccs2)CC1	1.4 nM

For "CC(=O)N[C@H](Cc1ccc(Cl)cc1Cl)C(=O)N1CCN(c2ccccc2CNCCc2cccs2)CC1" on Melanocortin receptor 4 (Homo sapiens), measured Ki was 2.4 nM

For "O=C(N[C@H](Cc1ccc(O)cc1)C(=O)N1CCN(c2ccccc2CNCCc2cccs2)CC1)OCc1ccccc1" on Melanocortin receptor 4 (Homo sapiens), measured Ki was 5700 nM

For "O=C(NCc1ccccc1F)N[C@H](Cc1ccc(Cl)cc1Cl)C(=O)N1CCN(c2ccccc2CNCCc2cccs2)CC1" on Melanocortin receptor 4 (Homo sapiens), measured Ki was 5 nM

For "O=C(N[C@H](Cc1cccc2ccccc12)C(=O)N1CCN(c2ccccc2CNCCc2cccs2)CC1)OCc1ccccc1" on Melanocortin receptor 4 (Homo sapiens), measured Ki was 420 nM

For "O=C(N[C@H](Cc1ccc(Cl)cc1Cl)C(=O)N1CCN(c2ccccc2CNCCc2cccs2)CC1)N1CCCC1" on Melanocortin receptor 4 (Homo sapiens), measured Ki was 1.5 nM

For "O=C(NC1CC1)N[C@H](Cc1ccc(Cl)cc1Cl)C(=O)N1CCN(c2ccccc2CNCCc2cccs2)CC1" on Melanocortin receptor 4 (Homo sapiens), measured Ki was 2.1 nM

====

Property: inhibition; scope: individual compounds
target.or.test.system: Melanocyte-stimulating hormone receptor (Homo sapiens, UniProt Q01726)
Sequence (Q01726 whole entry, looked up): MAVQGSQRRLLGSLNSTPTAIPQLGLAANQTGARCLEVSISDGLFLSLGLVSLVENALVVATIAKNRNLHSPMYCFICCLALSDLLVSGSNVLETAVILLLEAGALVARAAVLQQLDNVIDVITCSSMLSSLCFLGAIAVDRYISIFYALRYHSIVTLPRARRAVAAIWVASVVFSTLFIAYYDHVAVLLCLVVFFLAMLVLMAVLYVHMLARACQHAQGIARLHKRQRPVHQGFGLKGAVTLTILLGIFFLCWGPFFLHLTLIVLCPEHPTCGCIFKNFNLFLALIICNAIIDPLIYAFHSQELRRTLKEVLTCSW
test.method.notes: Percent inhibition of human melanocortin 1 receptor at 10 uM concentration
Form entry: value (%) — number only.

Consider "CCNC(=O)N[C@H](Cc1ccc(Cl)cc1Cl)C(=O)N1CCN(c2ccccc2CNCCc2cccs2)CC1" . Its measured inhibition is 18

Consider "CC(C)OC(=O)N[C@H](Cc1ccc(Cl)cc1Cl)C(=O)N1CCN(c2ccccc2CNCCc2cccs2)CC1" . Its measured inhibition is 9

Consider "O=C(NCCO)N[C@H](Cc1ccc(Cl)cc1Cl)C(=O)N1CCN(c2ccccc2CNCCc2cccs2)CC1" . Its measured inhibition is 8

Consider "CC(=O)N[C@H](Cc1ccc(Cl)cc1Cl)C(=O)N1CCN(c2ccccc2CNCCc2cccs2)CC1" . Its measured inhibition is 31

====

target.or.test.system: Melanocortin receptor 5 (Homo sapiens, UniProt P33032)
Sequence (P33032 whole entry): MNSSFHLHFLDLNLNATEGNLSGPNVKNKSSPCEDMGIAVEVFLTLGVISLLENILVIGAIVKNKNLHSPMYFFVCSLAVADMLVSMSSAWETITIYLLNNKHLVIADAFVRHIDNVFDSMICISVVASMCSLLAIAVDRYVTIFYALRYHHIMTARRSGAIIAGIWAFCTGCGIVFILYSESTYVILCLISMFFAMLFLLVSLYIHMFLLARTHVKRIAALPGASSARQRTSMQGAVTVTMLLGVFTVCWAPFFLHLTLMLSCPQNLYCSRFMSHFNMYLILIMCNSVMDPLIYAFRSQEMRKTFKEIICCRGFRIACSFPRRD
test.method.notes: Binding affinity at melanocortin-5 receptor stably transfected in HEK 293 cells using [125I]NDP-MSH as radiolabeled
Type: cell-based, HEK293
property.measured: pKi
Schema: pKi number; meaning minus log10 of the concentration expressed in molar units.

Sample answers from the record:
O=C(NCCO)N[C@H](Cc1ccc(Cl)cc1Cl)C(=O)N1CCN(c2ccccc2CNCCc2cccs2)CC1	6.46
CC(C)OC(=O)N[C@H](Cc1ccc(Cl)cc1Cl)C(=O)N1CCN(c2ccccc2CNCCc2cccs2)CC1	6.17
CCNC(=O)N[C@H](Cc1ccc(Cl)cc1Cl)C(=O)N1CCN(c2ccccc2CNCCc2cccs2)CC1	6.52

Consider "O=C(N[C@H](Cc1ccc(Cl)cc1Cl)C(=O)N1CCN(c2ccccc2CNCCc2cccs2)CC1)N1CCCC1" . Its measured pKi is 6.80
